All figures here come from patent US20150086555A1.

Entries and their measured Trimeric HA Binding: RLU follow.
- TARGET_OF_ASSAY: recombinant soluble homotrimeric HA of A/Indonesia/5/05 (H5N1) (Influenza A virus A/Indonesia/5/2005(H5N1))
- TEST: trimeric HA microarray, transfection supernatant set 5
- CONDITION_CONTEXT: remark: other sources report otherwise
Give just the numeric value; RLU need not be written.

BINDER: TCN-546 (5089_L08) (antibody, V domains shown) VH: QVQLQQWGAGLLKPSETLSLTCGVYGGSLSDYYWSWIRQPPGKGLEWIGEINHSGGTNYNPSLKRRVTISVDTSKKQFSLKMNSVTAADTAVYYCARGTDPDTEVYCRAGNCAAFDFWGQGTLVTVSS VL: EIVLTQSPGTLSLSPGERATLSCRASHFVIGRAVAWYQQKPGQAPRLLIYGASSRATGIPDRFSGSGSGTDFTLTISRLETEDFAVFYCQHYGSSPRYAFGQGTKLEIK
METRIC_NAME: Trimeric HA Binding: RLU
UNIT_OF_MEASURE: RLU
VALUE: 40900
//
BINDER: TCN-538 (3206_O17) (antibody, V domains shown) VH: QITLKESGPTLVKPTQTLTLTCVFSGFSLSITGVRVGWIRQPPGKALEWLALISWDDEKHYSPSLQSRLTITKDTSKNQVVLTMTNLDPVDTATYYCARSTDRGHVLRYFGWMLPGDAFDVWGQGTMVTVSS VL: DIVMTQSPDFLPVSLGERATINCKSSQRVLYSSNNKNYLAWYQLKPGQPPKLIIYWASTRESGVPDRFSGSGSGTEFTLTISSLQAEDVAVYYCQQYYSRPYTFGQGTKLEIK
METRIC_NAME: Trimeric HA Binding: RLU
UNIT_OF_MEASURE: RLU
VALUE: 13700

Input line: Look up Trimeric HA Binding: RLU for this binder: TCN-539 (5056_A08) (antibody, V domains shown) VH: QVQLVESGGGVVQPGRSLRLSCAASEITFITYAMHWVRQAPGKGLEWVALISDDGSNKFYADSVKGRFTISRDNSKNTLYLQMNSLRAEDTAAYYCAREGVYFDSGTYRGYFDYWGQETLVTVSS VL: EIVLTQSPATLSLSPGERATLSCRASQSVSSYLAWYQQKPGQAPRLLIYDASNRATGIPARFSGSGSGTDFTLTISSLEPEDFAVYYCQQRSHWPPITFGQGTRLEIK
Output line: 8950

Input line: Look up Trimeric HA Binding: RLU for this binder: TCN-537 (3194_D21) (antibody, V domains shown) VH: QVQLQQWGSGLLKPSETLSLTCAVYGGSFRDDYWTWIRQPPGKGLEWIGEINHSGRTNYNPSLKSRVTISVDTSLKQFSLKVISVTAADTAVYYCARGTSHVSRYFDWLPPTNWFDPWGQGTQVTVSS VL: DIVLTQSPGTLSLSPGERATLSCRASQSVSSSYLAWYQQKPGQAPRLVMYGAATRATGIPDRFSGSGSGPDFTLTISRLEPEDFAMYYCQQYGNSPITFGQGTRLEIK
Output line: 2420
